Form field: EC50 (one value per entry).
tgt: human mGluR5 (Homo sapiens, UniProt P41594)
Construct: expressed in transfected cells; host or cells: HEK293 cells stably expressing rat GLAST (EAAT1), stably transfected with pcDNAzeo3.1 carrying synthetic human mGluR5 DNA; zeocin-selected single clones
Sequence (P41594 21-1212): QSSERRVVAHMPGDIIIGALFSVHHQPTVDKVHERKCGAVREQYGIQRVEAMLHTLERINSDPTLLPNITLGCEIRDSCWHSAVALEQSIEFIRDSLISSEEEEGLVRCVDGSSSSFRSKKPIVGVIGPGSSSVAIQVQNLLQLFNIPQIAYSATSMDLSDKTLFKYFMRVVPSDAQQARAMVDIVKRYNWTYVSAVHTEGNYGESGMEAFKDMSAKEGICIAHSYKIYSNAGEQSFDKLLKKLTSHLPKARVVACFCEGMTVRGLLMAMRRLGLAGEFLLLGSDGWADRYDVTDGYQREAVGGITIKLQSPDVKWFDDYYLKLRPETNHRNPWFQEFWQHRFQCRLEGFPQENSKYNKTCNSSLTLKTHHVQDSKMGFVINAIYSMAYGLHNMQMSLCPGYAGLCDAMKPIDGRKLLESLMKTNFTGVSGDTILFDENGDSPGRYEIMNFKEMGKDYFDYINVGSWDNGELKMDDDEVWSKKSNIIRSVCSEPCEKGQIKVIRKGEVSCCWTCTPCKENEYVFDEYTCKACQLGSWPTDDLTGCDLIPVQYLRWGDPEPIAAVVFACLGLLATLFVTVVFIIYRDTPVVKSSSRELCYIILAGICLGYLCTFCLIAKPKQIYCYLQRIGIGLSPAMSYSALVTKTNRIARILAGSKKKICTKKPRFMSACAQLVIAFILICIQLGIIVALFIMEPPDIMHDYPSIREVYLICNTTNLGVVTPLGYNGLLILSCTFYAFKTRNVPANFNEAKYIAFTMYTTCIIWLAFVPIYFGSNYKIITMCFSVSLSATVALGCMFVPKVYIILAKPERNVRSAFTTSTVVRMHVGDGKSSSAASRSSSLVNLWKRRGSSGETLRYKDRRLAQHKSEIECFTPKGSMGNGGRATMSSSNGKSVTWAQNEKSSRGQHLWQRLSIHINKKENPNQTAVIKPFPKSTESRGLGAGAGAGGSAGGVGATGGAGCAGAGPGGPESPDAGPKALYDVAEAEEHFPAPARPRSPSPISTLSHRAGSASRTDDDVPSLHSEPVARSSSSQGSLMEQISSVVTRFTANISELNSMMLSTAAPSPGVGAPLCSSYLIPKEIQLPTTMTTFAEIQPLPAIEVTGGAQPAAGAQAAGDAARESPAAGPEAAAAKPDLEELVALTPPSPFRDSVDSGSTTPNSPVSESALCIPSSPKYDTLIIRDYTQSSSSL
test: In vitro cell-based FLIPR calcium assay for positive modulation of the activation of mGluR5 by glutamate (PAM EC50)
assay context: HEK293/GLAST cells expressing recombinant human mGluR5; FLIPR calcium signal; glutamate added at its EC20; read-out: mGluR5 PAM EC50
Excerpt: The DNA sequences encoding the structural regions for rat mGluR5 [Abe T, Sugihara H, Nawa H, Shigemoto R, Mizuno N, Nakanishi S (1992) “Molecular characterization of a novel metabotropic glutamate receptor mGluR5 coupled to inositol phosphate/Ca^2+ signal transduction” Journal of Biological Chemistry vol. 267, no. […]

[
  {
    "compound": "CC1(C)CCn2c(nc3cc(C#Cc4ccccn4)ccc3c2=O)C1",
    "EC50": "< 10 nM"
  },
  {
    "compound": "CN1C2CCC1Cn1c(nc3cc(C#Cc4cccc(F)c4)ccc3c1=O)C2 (stereo not shown)",
    "EC50": "300 to 1000 nM"
  },
  {
    "compound": "O=c1c2ccc(C#Cc3ccc(F)cc3)cc2nc2n1CCOCC2",
    "EC50": "< 10 nM"
  },
  {
    "compound": "CC1CCc2nc3cc(C#Cc4ccccn4)cnc3c(=O)n2CC1 (stereo not shown) [Example 11.9]",
    "EC50": "10 to 30 nM"
  },
  {
    "compound": "CC(C)(O)c1cnc2cc(C#Cc3cccc(F)c3)ccn2c1=O",
    "EC50": "100 to 300 nM"
  },
  {
    "compound": "O=c1c2ccc(C#Cc3ccccn3)cc2nc2n1CC1CC21 (stereo not shown)",
    "EC50": "30 to 100 nM"
  },
  {
    "compound": "CC1(C)CCc2nc3cc(/C=C/c4ccccc4F)ccc3c(=O)n2C1",
    "EC50": "30 to 100 nM"
  },
  {
    "compound": "CC1CCc2nc3cc(C#Cc4ccc(F)cc4)ccc3c(=O)n2CC1 (stereo not shown)",
    "EC50": "< 10 nM"
  },
  {
    "compound": "CC(C)Cn1cnc2cc(C#Cc3cccc(F)c3)ccc2c1=O",
    "EC50": "30 to 100 nM"
  },
  {
    "compound": "C=CCC1CCCCc2nc3cc(C#Cc4ccc(F)cc4)ccc3c(=O)n21 (stereo not shown)",
    "EC50": "10 to 30 nM"
  },
  {
    "compound": "O=c1c2ccc(C#Cc3ccc(F)c(F)c3)cc2nc2n1CCC1(CC2)OCCO1",
    "EC50": "100 to 300 nM"
  },
  {
    "compound": "CCC1CCc2nc3cc(C#Cc4ccc(F)cc4)ccc3c(=O)n2CC1 (stereo not shown)",
    "EC50": "< 10 nM"
  },
  {
    "compound": "CN1CCCc2nc3cc(C#Cc4ccc(F)cc4)ccc3c(=O)n2CC1",
    "EC50": "30 to 100 nM"
  },
  {
    "compound": "COCCn1cnc2cc(C#Cc3cccc(F)c3)cnc2c1=O",
    "EC50": "30 to 100 nM"
  },
  {
    "compound": "O=c1c2ccc(C#Cc3cccc(F)c3)cc2nc2n1CCN(Cc1ccccc1)C2",
    "EC50": "300 to 1000 nM"
  },
  {
    "compound": "COCCc1nc2cc(C#Cc3cccc(F)c3)ccc2c(=O)n1C",
    "EC50": "< 10 nM"
  },
  {
    "compound": "CC1CCCc2nc3cc(C#Cc4ccccn4)ccc3c(=O)n21 (stereo not shown)",
    "EC50": "10 to 30 nM"
  },
  {
    "compound": "C=C1CCc2nc3cc(C#Cc4cccc(F)c4)ccc3c(=O)n2C1",
    "EC50": "10 to 30 nM"
  },
  {
    "compound": "O=c1c2ccc(C#Cc3ccccn3)cc2nc2n1CCCCN2",
    "EC50": "10 to 30 nM"
  }
]
